test: Inhibition of PDGFR in mouse NIH/3T3 cells assessed as reduction in recombinant human PDGF-BB-induced cell proliferation after 42 hrs by cell titer 96 aqueous one solution based assay
Reported IC50 values follow for various compounds
VALUE_TYPE: IC50 (nM)

COC(=O)c1ccc2c(c1)NC(=O)/C2=C(\Nc1ccc(N2C(=O)CC[C@@H]2CN2CCN(C)CC2)cc1)c1ccccc1 : 97
COC(=O)c1ccc2c(c1)NC(=O)/C2=C(\Nc1ccc2c(c1)N(C(=O)CN1CC(C)OC(C)C1)CC2)c1ccccc1 (centres undefined) : 150
COC(=O)c1ccc2c(c1)NC(=O)/C2=C(\Nc1ccc2c(c1)N(C(=O)CN1CCOCC1)CC2)c1ccccc1 : 100
COC(=O)c1ccc2c(c1)NC(=O)/C2=C(\Nc1ccc2c(c1)N(C(=O)CN1CCCC1=O)CC2)c1ccccc1 : 260
COC(=O)c1ccc2c(c1)NC(=O)/C2=C(\Nc1ccc(N2C(=O)CC[C@H]2CN2CCN(C)CC2)cc1)c1ccccc1 : 110
COC(=O)c1ccc2c(c1)NC(=O)/C2=C(\Nc1ccc2c(c1)N(C(=O)Cn1cccn1)CC2)c1ccccc1 : 110
COC(=O)c1ccc2c(c1)NC(=O)/C2=C(\Nc1ccc(N(C)C(=O)CN2CCN(C)CC2)cc1)c1ccccc1 : 85
COC(=O)c1ccc2c(c1)NC(=O)/C2=C(\Nc1ccc2c(c1)N(C(=O)Cn1cncn1)CC2)c1ccccc1 : 100
COC(=O)c1ccc2c(c1)NC(=O)/C2=C(\Nc1ccc(N2CCC(CN3CCN(C)CC3)C2=O)cc1)c1ccccc1 (centres undefined) : 110
